experimental-system: T1, human full-length recombinant tau (2N4R) (human, UniProt P10636 2-758)
T1 construct: also called full length tau protein; full-length recombinant Tau protein
T1 sequence (P10636 other isoform, or with tags, fused parts or gaps limits assumed): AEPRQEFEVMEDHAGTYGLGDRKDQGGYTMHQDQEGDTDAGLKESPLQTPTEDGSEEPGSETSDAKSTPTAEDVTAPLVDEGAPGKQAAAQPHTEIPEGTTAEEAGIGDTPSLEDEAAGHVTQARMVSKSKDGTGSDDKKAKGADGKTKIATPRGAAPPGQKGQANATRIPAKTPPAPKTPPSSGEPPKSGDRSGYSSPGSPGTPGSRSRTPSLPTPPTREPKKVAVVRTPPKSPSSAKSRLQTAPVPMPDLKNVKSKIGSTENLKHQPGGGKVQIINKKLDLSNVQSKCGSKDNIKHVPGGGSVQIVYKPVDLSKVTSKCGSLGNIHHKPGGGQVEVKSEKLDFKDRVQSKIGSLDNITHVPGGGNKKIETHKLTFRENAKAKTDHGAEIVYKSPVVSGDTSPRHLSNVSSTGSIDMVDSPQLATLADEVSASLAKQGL
method-notes: SPR, Biacore T200, 25 C, mAb captured by anti-Fc on CM4 chip, tau in solution, 1:1 Langmuir fit
Method: The interactions of anti-tau antibodies with human full-length recombinant tau (2N4R) were studied by SPR using a Biacore T200 at 25° C. with HBS pH 7.4 buffer, supplemented with 3 mM EDTA, and 0.05% Tween 20. […] The association and dissociation were monitored for 3 minutes and 60 min respectively at 50 μL/min flow rate. […]
pKd: −log10 of the molar value.
test-readout: pKd

>>> result_value("PT1B545 (antibody, mouse IgG2a, kappa, V domains shown, Recombinant version of the parent mAb PT/66, with mouse constant regions; also called rec. parent; recombinant parent of PT/66) VH: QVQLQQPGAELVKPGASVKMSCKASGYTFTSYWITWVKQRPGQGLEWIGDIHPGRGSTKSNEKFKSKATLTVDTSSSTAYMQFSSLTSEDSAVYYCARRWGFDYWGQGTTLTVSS VL: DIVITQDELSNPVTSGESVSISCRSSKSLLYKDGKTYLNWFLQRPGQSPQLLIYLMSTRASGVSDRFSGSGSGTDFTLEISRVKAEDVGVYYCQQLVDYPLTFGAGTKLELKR")
"> 10.55"
>>> result_value("PT1B635 (antibody, human IgG1, kappa, V domains shown, also called humanized PT/66 variant) VH: QVQLVQSGAEVKKPGASVKVSCKASGYTFTSYWITWVRQAPGQGLEWMGDIHPGRGSTKYAQKLQGRVTLTTDTSTSTAYMELRSLRSDDTAVYYCARRWGFDYWGQGTLVTVSS VL: DIVITQTPLSLPVTPGEPASISCRSSKSLLYKDGKTYLNWFLQKPGQSPQLLIYLMSTRASGVPDRFSGSGSGTDFTLKISRVEAEDVGVYYCQQLVDYPLTFGQGTKLEIKR")
"> 10.39"
>>> result_value("PT1B901 (antibody, human IgG1, kappa, V domains shown, also called humanized PT/66 variant with G44L in LCDR1) VH: QVQLVQSGAEVKKPGASVKVSCKASGYTFTSYWITWVRQAPGQGLEWMGDIHPGRGSTKYAQKLQGRVTLTTDTSTSTAYMELRSLRSDDTAVYYCARRWGFDYWGQGTLVTVSS VL: DIVITQTPLSLPVTPGEPASISCRSSKSLLYKDLKTYLNWFLQKPGQSPQLLIYLMSTRASGVPDRFSGSGSGTDFTLKISRVEAEDVGVYYCQQLVDYPLTFGQGTKLEIKR")
10.23
>>> result_value("PT/66 anti-PHF-Tau monoclonal Ab (mouse parent) (antibody, V domains shown, Murine mAb) VH: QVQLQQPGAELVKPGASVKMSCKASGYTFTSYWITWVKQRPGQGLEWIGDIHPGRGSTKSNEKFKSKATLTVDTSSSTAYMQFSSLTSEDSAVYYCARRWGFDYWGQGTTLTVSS VL: DIVITQDELSNPVTSGESVSISCRSSKSLLYKDGKTYLNWFLQRPGQSPQLLIYLMSTRASGVSDRFSGSGSGTDFTLEISRVKAEDVGVYYCQQLVDYPLTFGAGTKLELK")
"> 10.51"

Data origin, for the record: patent US20240166731A1
